Tested on: cancer cell lines
Protocol Details: Cancer cell proliferation activity (CellTiterGlo, 72 h)
Type: cell-based
Conditions Used: 72 h, AS49 cell line (lung), 72 h; read-out: IC50
Measured Property: IC50 (µM)

- Smiles Str: "CCC[C@]1(CO)O[C@@H](n2cnc3c(N)nc(F)nc32)C[C@@H]1O"
  Assayed Target: "cancer cell lines"
  Result Qualifier: "="
  Numeric Readout: 3.01
- Smiles Str: "CC[C@]1(CO)O[C@@H](n2cnc3c(N)nc(F)nc32)[C@H](O)[C@@H]1O"
  Assayed Target: "cancer cell lines"
  Result Qualifier: "="
  Numeric Readout: 0.24
- Smiles Str: "COC[C@]1(CO)O[C@@H](n2cnc3c(N)nc(F)nc32)C[C@@H]1O"
  Assayed Target: "cancer cell lines"
  Result Qualifier: "="
  Numeric Readout: 4.06
- Smiles Str: "Cc1cn([C@H]2C[C@H](O)[C@@](C#N)(CO)O2)c(=O)[nH]c1=O"
  Assayed Target: "cancer cell lines"
  Result Qualifier: ">"
  Numeric Readout: 50
- Smiles Str: "Nc1nc(F)nc2c1ncn2[C@H]1C[C@H](O)[C@](CO)(CF)O1"
  Assayed Target: "cancer cell lines"
  Result Qualifier: ">"
  Numeric Readout: 50
